- Tested on: HL-60
- ASSAY_REMARKS: Antiproliferative activity against human HL-60 cells measured after 1 to 3 days by CCK-8 assay
- Type: functional, cell-based
MEASURE_NAME: IC50

>>> measured_value("Cc1ccsc1C(=O)n1nc(Nc2ccc(S(=O)(=O)NCCOCc3cn(CCOCCOCCNc4cccc5c4C(=O)N(C4CCC(=O)NC4=O)C5=O)nn3)cc2)nc1N (stereo unspecified)")
"> 1000 nM"
>>> measured_value("O=C1CCC(N2C(=O)c3ccc(N4CCC(CN5CCN(Cc6ccc(NC(=O)c7n[nH]cc7Nc7ncnc8[nH]ccc78)cc6)CC5)C4)cc3C2=O)C(=O)N1 (stereo unspecified)")
"11.7 nM"
>>> measured_value("O=C1CCC(N2C(=O)c3ccc(N4CCC(N5CCC(NC(=O)c6n[nH]cc6NC(=O)c6c(Cl)cccc6Cl)CC5)CC4)cc3C2=O)C(=O)N1 (stereo unspecified)")
"24.4 nM"
>>> measured_value("O=C1CCC(N2C(=O)c3ccc(N4CCC(CN5CCC(NC(=O)c6n[nH]cc6NC(=O)c6c(Cl)cccc6Cl)CC5)CC4)cc3C2=O)C(=O)N1 (stereo unspecified)")
"44.6 nM"
>>> measured_value("O=C1CCC(N2C(=O)c3ccc(N4CCC(CCN5CCC(NC(=O)c6n[nH]cc6NC(=O)c6c(Cl)cccc6Cl)CC5)CC4)cc3C2=O)C(=O)N1 (stereo unspecified)")
"24.1 nM"
>>> measured_value("O=C1CCC(N2C(=O)c3ccc(N4CC(N5CCC(NC(=O)c6n[nH]cc6NC(=O)c6c(Cl)cccc6Cl)CC5)C4)cc3C2=O)C(=O)N1 (stereo unspecified)")
"17.8 nM"

* * *

- TGT: Protein cereblon/Cyclin-dependent kinase 2 (Homo sapiens, UniProt P24941+Q96SW2)
- ASSAY_REMARKS: Protac activity at CRBN/CDK2 in human HL-60 cells assessed as induction of CDK2 degradation by Western blot analysis relative to control
- Assay type: cell-based
MEASURE_NAME: Emax (%)

>>> measured_value("O=C1CCC(N2C(=O)c3ccc(N4CCC(CN5CCC(NC(=O)c6n[nH]cc6NC(=O)c6c(Cl)cccc6Cl)CC5)CC4)cc3C2=O)C(=O)N1 (stereo not given)")
75.8
>>> measured_value("O=C1CCC(N2C(=O)c3ccc(N4CC(C(=O)N5CCC(NC(=O)c6n[nH]cc6NC(=O)c6c(Cl)cccc6Cl)CC5)C4)cc3C2=O)C(=O)N1 (stereo not given)")
34.2
>>> measured_value("O=C1CCC(N2C(=O)c3ccc(N4CCC(CN5CCN(Cc6ccc(NC(=O)c7n[nH]cc7Nc7ncnc8[nH]ccc78)cc6)CC5)CC4)cc3C2=O)C(=O)N1 (stereo not given)")
81.9
>>> measured_value("O=C1CCC(N2C(=O)c3ccc(N4CCC(N5CCC(NC(=O)c6n[nH]cc6NC(=O)c6c(Cl)cccc6Cl)CC5)C4)cc3C2=O)C(=O)N1 (stereo not given)")
59.1
>>> measured_value("O=C1CCC(N2C(=O)c3ccc(N4CC(N5CCC(NC(=O)c6n[nH]cc6NC(=O)c6c(Cl)cccc6Cl)CC5)C4)cc3C2=O)C(=O)N1 (stereo not given)")
72.8

* * *

- System: HL-60
- ASSAY_REMARKS: Antiproliferative activity against human HL-60 cells measured after 1 to 3 days by CCK-8 assay
- Type: functional, cell-based
MEASURE_NAME: IC50 (nM)

>>> measured_value("O=C1CCC(N2C(=O)c3ccc(N4CCC(N5CCC(NC(=O)c6n[nH]cc6NC(=O)c6c(Cl)cccc6Cl)CC5)C4)cc3C2=O)C(=O)N1 (stereo not drawn)")
14
>>> measured_value("CN1CCN(Cc2ccc(NC(=O)c3n[nH]cc3Nc3ncnc4[nH]ccc34)cc2)CC1")
89.3
>>> measured_value("O=C1CCC(N2C(=O)c3ccc(N4CC(CN5CCC(CCN6CCC(NC(=O)c7n[nH]cc7NC(=O)c7c(Cl)cccc7Cl)CC6)CC5)C4)cc3C2=O)C(=O)N1 (stereo not drawn)")
11.5
>>> measured_value("O=C1CCC(N2C(=O)c3ccc(N4CC(CN5CCC(NC(=O)c6n[nH]cc6NC(=O)c6c(Cl)cccc6Cl)CC5)C4)cc3C2=O)C(=O)N1 (stereo not drawn)")
20.4
>>> measured_value("O=C1CCC(N2C(=O)c3ccc(N4CCC(CN5CCC(NC(=O)c6n[nH]cc6NC(=O)c6c(Cl)cccc6Cl)CC5)C4)cc3C2=O)C(=O)N1 (stereo not drawn)")
40.8
>>> measured_value("O=C(NC1CCNCC1)c1n[nH]cc1NC(=O)c1c(Cl)cccc1Cl [AT-7519]")
135
>>> measured_value("O=C1CCC(N2C(=O)c3ccc(N4CC(CN5CCN(Cc6ccc(NC(=O)c7n[nH]cc7Nc7ncnc8[nH]ccc78)cc6)CC5)C4)cc3C2=O)C(=O)N1 (stereo not drawn)")
13.4
>>> measured_value("O=C1CCC(N2C(=O)c3ccc(N4CCC(CN5CCN(Cc6ccc(NC(=O)c7n[nH]cc7Nc7ncnc8[nH]ccc78)cc6)CC5)CC4)cc3C2=O)C(=O)N1 (stereo not drawn)")
10.5
